Tested on: affinity purified β2GPI-dependent antiphospholipid antibody
EXPERIMENT: Competitive inhibition ELISA: recombinant β2GPI proteins compete for antibody binding to coated full length recombinant β2GPI
Parameters: species or system human
ASSAY_CONTEXT: Ab 6501
Experimental: Microtiter plates (MaxiSorp™, Nalge Nunc International, Denmark) were coated with 50 μl of full length recombinant β2GPI at 10 μg/ml in 0.1 M bicarbonate, pH 9.5, incubated overnight at 4° C., washed three times with 0.15 M PBS, pH 7.2, and blocked for one hour at room temperature with 75 μl of 2% Non-fat Dried Milk (Carnation, 2% NFDM). […] The Optical Density, at 550 nm, was determined by reading the plates in a microplate autoreader (Bio-Teck Instruments, model EL3 11). […]
If the reported Max (maximum inhibition observed at concentrations tested) equals or exceeds 20%, assign condition met. If not, assign condition not met.

Query :: Form field: Max (maximum inhibition observed at concentrations tested) at least 20%? Entry: 1----: recombinant β2GPI protein with domain 1 only (SEQ ID NO:4 region), His6 tail (protein) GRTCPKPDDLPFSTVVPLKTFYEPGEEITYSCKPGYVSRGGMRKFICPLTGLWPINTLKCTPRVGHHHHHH
Result :: condition met

Query :: Entry 123--: recombinant β2GPI deletion mutant with domains 1, 2, 3 (protein) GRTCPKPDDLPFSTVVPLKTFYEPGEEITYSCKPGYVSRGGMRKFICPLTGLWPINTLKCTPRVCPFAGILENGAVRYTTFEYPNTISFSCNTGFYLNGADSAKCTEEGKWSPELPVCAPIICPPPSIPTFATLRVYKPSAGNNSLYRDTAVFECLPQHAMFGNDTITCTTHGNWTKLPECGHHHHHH : is its Max (maximum inhibition observed at concentrations tested) no less than 20%?
Result :: condition met

Query :: Quick check: does 1234-: recombinant β2GPI deletion mutant with domains 1, 2, 3, 4 (protein) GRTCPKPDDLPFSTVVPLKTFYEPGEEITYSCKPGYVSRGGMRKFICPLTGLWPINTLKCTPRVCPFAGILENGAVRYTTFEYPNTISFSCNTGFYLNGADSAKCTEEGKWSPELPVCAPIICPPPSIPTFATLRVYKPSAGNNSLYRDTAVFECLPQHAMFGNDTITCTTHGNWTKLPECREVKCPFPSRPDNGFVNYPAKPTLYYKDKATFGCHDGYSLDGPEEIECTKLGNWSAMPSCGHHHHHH have Max (maximum inhibition observed at concentrations tested) greater than or equal to 20%?
Result :: condition met

Query :: Tell me whether Max (maximum inhibition observed at concentrations tested) is at least 20% here: --345: recombinant β2GPI deletion mutant with domains 3, 4, 5 (protein) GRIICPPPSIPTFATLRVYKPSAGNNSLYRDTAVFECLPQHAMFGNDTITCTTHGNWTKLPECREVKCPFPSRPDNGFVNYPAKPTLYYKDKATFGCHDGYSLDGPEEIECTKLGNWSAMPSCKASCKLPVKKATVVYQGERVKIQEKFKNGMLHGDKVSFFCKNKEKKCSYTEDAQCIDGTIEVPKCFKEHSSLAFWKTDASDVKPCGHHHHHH
Result :: condition not met

Query :: Check if Max (maximum inhibition observed at concentrations tested) >= 20% (inclusive). Item: ---45: recombinant β2GPI deletion mutant with domains 4, 5 (protein) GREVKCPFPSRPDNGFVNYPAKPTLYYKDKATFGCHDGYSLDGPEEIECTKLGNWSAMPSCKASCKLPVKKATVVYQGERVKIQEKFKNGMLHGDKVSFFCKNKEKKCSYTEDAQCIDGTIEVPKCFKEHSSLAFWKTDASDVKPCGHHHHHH
Result :: condition not met

Query :: Check this molecule for Max (maximum inhibition observed at concentrations tested) at or above 20%: recombinant β2GPI domain 5 with GlyHis6 (----5) (protein) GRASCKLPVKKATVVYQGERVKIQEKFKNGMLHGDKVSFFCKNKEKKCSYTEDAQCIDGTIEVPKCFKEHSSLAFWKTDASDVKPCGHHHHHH
Result :: condition not met

Query :: For this molecule, is measured Max (maximum inhibition observed at concentrations tested) 20% or higher? 12---: recombinant β2GPI deletion mutant with domains 1 and 2 (protein) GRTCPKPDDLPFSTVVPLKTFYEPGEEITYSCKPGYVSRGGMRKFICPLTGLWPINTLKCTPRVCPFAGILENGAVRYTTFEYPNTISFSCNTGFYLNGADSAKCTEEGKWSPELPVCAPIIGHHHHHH
Result :: condition met

Reference for the values: patent US6858210B1
